These data points were gathered from ChEMBL document CHEMBL4706775.

- TEST METHOD NOTES: Distribution coefficient, log D of the compound by MSD HPLC analysis
- Format: physicochemical
- CONDITION NOTES: octanol/water
MEASUREMENT NAME: logD

SAMPLE SMILES: CN[C@H](CNc1cc(F)c(S(=O)(=O)Nc2ncc(F)s2)cc1Cl)CC(C)(C)C.Cl
MEAS VALUE: 1.7

---

- TEST METHOD NOTES: Kinetic solubility of compound at pH 2 by HPLC analysis
- Format: physicochemical
- CONDITION NOTES: buffer, read-out: Kinetic_solubility
MEASUREMENT NAME: solubility kinetic (µM)

SAMPLE SMILES: CN[C@H](CNc1cc(F)c(S(=O)(=O)Nc2ncc(F)s2)cc1Cl)CC(C)(C)C.Cl
DISPLAY UNIT: µM
MEAS VALUE: 170
